Measured values drawn from PubChem BioAssay (NCATS) for this set.

# TARGET OR TEST SYSTEM: Dual specificity protein kinase CLK4 (Homo sapiens) (UniProt Q9HAZ1)
# Sequence (Q9HAZ1 whole entry, looked up): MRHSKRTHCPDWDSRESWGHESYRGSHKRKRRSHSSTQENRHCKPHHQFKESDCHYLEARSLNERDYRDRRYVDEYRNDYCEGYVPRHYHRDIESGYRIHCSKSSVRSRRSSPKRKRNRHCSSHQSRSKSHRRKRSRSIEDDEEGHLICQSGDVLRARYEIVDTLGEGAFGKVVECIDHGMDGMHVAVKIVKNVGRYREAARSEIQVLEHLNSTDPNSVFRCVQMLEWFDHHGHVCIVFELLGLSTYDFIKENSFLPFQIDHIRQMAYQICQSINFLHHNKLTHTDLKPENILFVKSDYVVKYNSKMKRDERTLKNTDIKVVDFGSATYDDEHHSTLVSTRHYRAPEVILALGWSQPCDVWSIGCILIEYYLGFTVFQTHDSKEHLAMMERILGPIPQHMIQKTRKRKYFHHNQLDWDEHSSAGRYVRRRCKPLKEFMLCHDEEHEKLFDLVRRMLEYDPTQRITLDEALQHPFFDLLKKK
# ASSAY EXPLANATION: qHTS Assay for Inhibitors of CDC-like Kinase 4 (ADP-Glo Assay) (AID 1771); note: nearly all actives have a fitted effect of over 70% in size
# RECORDED CONDITIONS: recombinant CLK4, ADP-Glo luminescence; series mostly up to 80 µM
Records with an inconclusive call do not appear. Active and inactive are the calls of the source. Calls come from the whole dose curve; as a rule, active = well fitted inhibition curve with a large enough effect; inconclusive = small, poorly fitted or top-dose-only effect; inactive = flat fitted curve, though single readings scatter.
Hi! Could you answer with just one of these? TRUE = active, FALSE = inactive

Prompt: Could you check what this test reported for O=c1cnc2cnc(Oc3ccccc3)nc2n1C1CC1 ?
Response: FALSE

Prompt: Could you check what this test reported for CCNc1ncc2nc(-c3ccc(OC)cc3)c(=O)n(CCc3ccccc3)c2n1 ?
Response: FALSE

Prompt: Could you check what this test reported for CS(=O)(=O)Nc1cccc(-c2ccc3ncnc(NCc4cccs4)c3c2)c1 ?
Response: TRUE

Prompt: Could you check what this test reported for COc1ccc(-c2nc3cnc(N(C)C)nc3n(Cc3cccs3)c2=O)cc1 ?
Response: FALSE

Prompt: Could you check what this test reported for c1csc(CNc2ncncc2-c2ccoc2)c1 ?
Response: FALSE

Prompt: Could you check what this test reported for COc1ccc2[nH]cc(CCNc3ncnc4ccc(-c5c(C)noc5C)cc34)c2c1 ?
Response: TRUE

Prompt: Could you check what this test reported for COc1ccc2[nH]cc(CCNc3nc(-c4cccc(C#N)c4)nc4ccccc34)c2c1 ?
Response: TRUE

Prompt: Could you check what this test reported for COCCn1c(=O)c(-c2cc(F)cc(F)c2)nc2cnc(N(C)C)nc21 ?
Response: FALSE

Prompt: Could you check what this test reported for N#CCCn1c(=O)c(-c2cc(F)cc(F)c2)nc2cnc(Oc3ccccc3)nc21 ?
Response: FALSE

Prompt: Could you check what this test reported for CC(=O)NCCNc1nc(-c2ccccc2C)nc2ccccc12 ?
Response: TRUE

Prompt: Could you check what this test reported for COc1cccc(-c2cncnc2Nc2ccccc2)c1 ?
Response: FALSE
